settings: 333.15 K; 100 kPa; Liquid; Frequency=3 MHz; Single path-length method
measurementLabel: speed of sound (m/s)
Please give a number only; it is taken to be in m/s.

Known speed of sound results, listed for orientation:
compound: CC[S+](CC)CC.O=S(=O)([N-]S(=O)(=O)C(F)(F)F)C(F)(F)F [triethylsulfonium bis((trifluoromethyl)sulfonyl)imide]
measurementLabel: speed of sound
readoutUnit: m/s
resultValue: 1175.9
--
compound: C=CCn1cc[n+](C)c1.O=S(=O)([N-]S(=O)(=O)C(F)(F)F)C(F)(F)F
measurementLabel: speed of sound
readoutUnit: m/s
resultValue: 1164.2
--
compound: CCCC[N+]1(C)CCCC1.O=S(=O)([N-]S(=O)(=O)C(F)(F)F)C(F)(F)F
measurementLabel: speed of sound
readoutUnit: m/s
resultValue: 1193.6
--
compound: CCCO
measurementLabel: speed of sound
readoutUnit: m/s
resultValue: 1088.3

Task item: Which speed of sound value is on record for O=S(=O)([N-]S(=O)(=O)C(F)(F)F)C(F)(F)F.On1cc[n+](O)c1 [1,3-dihydroxyimidazolium bis(trifluoromethylsulfonyl)imide] ?
Reply: 1120.7
